Tested on: M24 cells
assay-name: MTT cell proliferation assay
Format: cell-based
conditions-used: Homo sapiens; M24 cell line; read-out: MTT Assay IC50, M24
Procedure: The MTT cell proliferation assay was used to study the cytotoxic properties of the compounds. The assay was performed according to the method described by Roche Molecular Biochemicals, with minor modifications. […] After solubilization, the formazan dye was quantitated using a scanning multi-well spectrophotometer (ELISA reader). […] All optical densities were measured at 490 nm using a Vmax Kinetic Microplate Reader (Molecular Devices). […]
pIC50: −log10 of the molar value.
Overview of reported pIC50 across a group of compounds:

| compound | reported-property | endpoint-value |
| --- | --- | --- |
| Nc1ccc(/C=C/C(=O)NCc2cc3cc(-c4ccc(S(=O)(=O)N5CCOCC5)cc4)cc(Cl)c3o2)cn1 [Compound 504] | pIC50 | 5.30 to 7.00 |

Look up pIC50 with M24 cells for this compound: Nc1ccc(/C=C/C(=O)NCc2cc3cc(-c4ccc(C(=O)N5CCOCC5)cc4)cc(C(F)(F)F)c3o2)cn1 [Compound 510]
5.30 to 7.00
